// read-out IC50, gathered for Monoglyceride lipase (Mus musculus, UniProt O35678) from published studies

{"Molecule": "CC(=O)N(C)c1cnn(C(=O)N2CCC3(CCN(Cc4ccc(-c5ccncn5)cc4Cl)C3)C2)c1 (stereo not shown)", "Result": "100 to 1000 nM"}
{"Molecule": "O=C(OC(C(F)(F)F)C(F)(F)F)N1CCC2(CC1)CN(Cc1ccc(Cl)cc1N1CCCCC1)C2", "Result": "100 to 1000 nM"}
{"Molecule": "O=C(OC(C(F)(F)F)C(F)(F)F)N1CCC2(CCCN2C(=O)c2cn3c(n2)CN(C2CC2)CC3)CC1", "Result": "< 100 nM"}
{"Molecule": "O=C(OC(C(F)(F)F)C(F)(F)F)N1CCC2(CCCN2Cc2ccc3cc(Cl)ccc3n2)CC1", "Result": "< 100 nM"}
{"Molecule": "O=C(OC(C(F)(F)F)C(F)(F)F)N1CCC2(CCCN2Cc2cc(-c3ccc(Cl)cc3)on2)CC1", "Result": "< 100 nM"}

[in] With Monoglyceride lipase (Mus musculus, UniProt O35678) as the test system, provide measured IC50 for this molecule: CC(=O)N1CCC2(CC1)CN(c1cc(C(F)(F)F)ccc1CN1CCN(C(=O)OC(C(F)(F)F)C(F)(F)F)CC1)C2
[out] < 100 nM

[in] Find the measured IC50 of O=C(O)C1CCN(c2cc(Cl)ccc2CN2CCC3(CC2)CCN(C(=O)OC(C(F)(F)F)C(F)(F)F)C3)CC1 with Monoglyceride lipase (Mus musculus, UniProt O35678) as test system.
[out] 100 to 1000 nM
